For each entry below, report its hERG current change (%, negative = inhibition) at 10uM value.
Molecular target: human ether-à-go-go-related gene (hERG) potassium channel (human);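 further: peak tail current of the secondary pulse compared with the same well before compound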
Sequence (Q12809 whole entry, looked up): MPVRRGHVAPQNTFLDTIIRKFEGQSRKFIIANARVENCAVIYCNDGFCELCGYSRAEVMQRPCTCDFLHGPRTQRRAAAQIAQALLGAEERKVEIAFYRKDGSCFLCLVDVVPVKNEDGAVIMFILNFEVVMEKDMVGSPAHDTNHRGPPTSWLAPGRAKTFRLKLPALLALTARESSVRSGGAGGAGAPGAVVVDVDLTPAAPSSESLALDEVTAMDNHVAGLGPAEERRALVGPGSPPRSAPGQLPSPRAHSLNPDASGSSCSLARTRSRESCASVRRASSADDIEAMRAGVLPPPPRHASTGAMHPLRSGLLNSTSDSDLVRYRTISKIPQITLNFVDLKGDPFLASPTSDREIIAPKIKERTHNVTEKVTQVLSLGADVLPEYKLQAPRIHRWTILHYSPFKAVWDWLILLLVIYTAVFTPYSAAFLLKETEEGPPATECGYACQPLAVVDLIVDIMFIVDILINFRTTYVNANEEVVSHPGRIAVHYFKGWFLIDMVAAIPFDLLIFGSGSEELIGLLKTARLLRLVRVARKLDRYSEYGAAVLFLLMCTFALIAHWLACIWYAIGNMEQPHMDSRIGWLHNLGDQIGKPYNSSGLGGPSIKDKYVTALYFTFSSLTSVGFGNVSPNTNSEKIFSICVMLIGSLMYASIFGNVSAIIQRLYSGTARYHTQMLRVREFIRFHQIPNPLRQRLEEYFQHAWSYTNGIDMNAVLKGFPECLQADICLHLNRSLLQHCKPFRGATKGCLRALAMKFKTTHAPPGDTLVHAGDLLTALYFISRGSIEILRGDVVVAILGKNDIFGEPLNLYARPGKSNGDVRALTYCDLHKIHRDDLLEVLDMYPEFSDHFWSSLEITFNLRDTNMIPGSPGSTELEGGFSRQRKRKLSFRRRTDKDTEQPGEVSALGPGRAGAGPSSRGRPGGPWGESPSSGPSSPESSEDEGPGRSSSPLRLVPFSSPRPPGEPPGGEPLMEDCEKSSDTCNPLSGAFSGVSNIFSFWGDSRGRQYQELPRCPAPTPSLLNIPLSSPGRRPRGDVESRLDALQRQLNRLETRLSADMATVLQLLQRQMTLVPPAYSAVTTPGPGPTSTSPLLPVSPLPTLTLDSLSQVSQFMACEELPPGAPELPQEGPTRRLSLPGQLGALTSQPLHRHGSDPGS
Assay: primary screen, population patch clamp on CHO cells stably expressing hERG; higher = less effect of the substance
Out of some 310,000 compounds screened, about 14,000 (4.5%) showed an effect of 50% or more. Effects have a minus sign here. For the sample, strong results were picked, then their nearest neighbours and some compounds at random.
Numbers only; they are read as %.

The reported value for O=C(NCC1CCCO1)c1cccc(Oc2ccccc2)c1 (stereo not shown) in terms of hERG current change (%, negative = inhibition) at 10uM is -37.5

The reported value for CC(NC(=O)CSc1nc2c(cc1C#N)CN(C)CC2)c1ccccc1 (stereo not shown) in terms of hERG current change (%, negative = inhibition) at 10uM is -20.3

The reported value for N#CC(C#N)=Cc1ccc(N2CCOCC2)cc1 in terms of hERG current change (%, negative = inhibition) at 10uM is -10.7

The reported value for Cc1cccc(CSc2nc3c(cc2C#N)CN(C)CC3)c1 in terms of hERG current change (%, negative = inhibition) at 10uM is -71.2

The reported value for Cc1ccc(OCC(O)CN2CC3(C)CC2CC(C)(C)C3)cc1.O=C(O)C(=O)O (stereo not shown) in terms of hERG current change (%, negative = inhibition) at 10uM is -53.6

The reported value for CCCNC(=O)c1ccc(N2CC3CC(C2)c2cccc(=O)n2C3)c(NC(=O)Nc2ccc(CC)cc2)c1 (stereo not shown) in terms of hERG current change (%, negative = inhibition) at 10uM is -78.7

The reported value for CC1(C)CC2CC(C)(CN2CC(O)COc2ccccc2)C1.O=C(O)C(=O)O (stereo not shown) in terms of hERG current change (%, negative = inhibition) at 10uM is -41.5

The reported value for Cc1nc(-c2ccccc2)sc1C(=O)CSc1ccc(F)cc1 in terms of hERG current change (%, negative = inhibition) at 10uM is -7.92

The reported value for CCC(CC)C(=O)OCC(=O)Nc1cccc(S(=O)(=O)N(C)c2ccccc2)c1 in terms of hERG current change (%, negative = inhibition) at 10uM is 14.3

The reported value for O=C(NCC1CCCO1)c1ccc(NC(=O)c2cccc([N+](=O)[O-])c2)cc1 (stereo not shown) in terms of hERG current change (%, negative = inhibition) at 10uM is 3.68

The reported value for CN(C)c1nnnn1-c1ccc(OC(F)(F)F)cc1 in terms of hERG current change (%, negative = inhibition) at 10uM is -9.73

The reported value for Cc1cccc(C(=O)N2CC3(C)CC2CC(C)(C)C3)c1 (stereo not shown) in terms of hERG current change (%, negative = inhibition) at 10uM is 0.368

The reported value for O=C(NC1CCCc2ccccc21)c1cn2ccccc2n1 (stereo not shown) in terms of hERG current change (%, negative = inhibition) at 10uM is -25.5

The reported value for O=c1cccc2n1CC1CC2CN(S(=O)(=O)c2ccccc2)C1 (stereo not shown) in terms of hERG current change (%, negative = inhibition) at 10uM is -3.59

The reported value for CCOC(=O)c1cnn(-c2sc(C(=O)OCC)c(C)c2C(=O)OCC)c1N in terms of hERG current change (%, negative = inhibition) at 10uM is 16.4

The reported value for CCN(CC)C(=O)c1cc2c(=O)c3cc(Cl)ccc3oc2nc1C in terms of hERG current change (%, negative = inhibition) at 10uM is -66.1

Source listed as paper PMC4336329.
